Entries and their Kd
Target: T1, HBsAg AD serotype (Hepatitis B virus)
T1 construct: also called HBsAg serotype AD
Assay: SPR Biacore T200, HBsAg particles immobilized, antibody as analyte, 1:1 fit;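 also: Anti-HBsAg antibodies assessed for binding against both major HBsAg serotypes, AY and AD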

Binder	Recorded Measurement
NOV3357 (antibody, human IgG1, kappa, V domains shown, Full human IgG1 (kappa) expressed in CHO cells) VH: EVQLLESGGGLVQPGGSLRLSCAASGFTFSPHAMSWVRQAPGKGLEWVSAISDSGGSTHYADSVKGRFTISRDNSKNTLYLQMNSLRAEDTAVYYCARDDDGWSGYDYWFDYWGQGTLVTVSS VL: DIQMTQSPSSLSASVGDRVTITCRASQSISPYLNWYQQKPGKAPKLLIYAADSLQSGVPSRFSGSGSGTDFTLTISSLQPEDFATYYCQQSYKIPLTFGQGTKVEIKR	0.18 nM

Name the recorded Kd for NOV3839 (antibody, human IgG1, kappa, V domains shown, Full human IgG1 (kappa) expressed in CHO cells) VH: QVQLQESGGRLVRPGGSLRLSCAASGFIFTDYYMTWIRQAPGKGPEWIAFITSGGETTYYADSVKGRFTISRDNAKKSLFLQMYSLRADDTAVYYCVRAHFDIYQYDTRGDFTYYFDNWGLGTLVSVSS VL: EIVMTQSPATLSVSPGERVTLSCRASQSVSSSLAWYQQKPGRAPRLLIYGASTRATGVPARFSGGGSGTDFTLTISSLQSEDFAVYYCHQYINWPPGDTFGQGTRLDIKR .
0.59 nM

Then NOV3837 (antibody, human IgG1, kappa, V domains shown, Full human IgG1 (kappa) expressed in CHO cells) VH: QVQLQESGGRLVRPGGSLRLSCAASGFIFTDYYMTWIRQAPGKGPEWIAFITSGGETTYYADSVKGRFTISRDNAKKSLFLQMYSLRADDTAVYYCVRAHFDGYQYDTRGDFTYYFDNWGLGTLVSVSS VL: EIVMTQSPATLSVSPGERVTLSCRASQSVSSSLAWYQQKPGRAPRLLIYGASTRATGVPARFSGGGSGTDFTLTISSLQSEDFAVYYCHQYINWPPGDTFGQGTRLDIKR ?
0.67 nM

Then NOV3831 (antibody, human IgG1, lambda, V domains shown, Full human IgG1 (lambda) expressed in CHO cells) VH: EMQVLESGGGLVQPGGSLRLSCAASGFTFNNYAMSWVRQVPGKGLEWVSSISGSGGSTYYADSVKGQFTISRDNSKNTLYLQMNSLRAEDTAVYYCAKSSILSGGHARVYGIDVWGQGTTVTVSS VL: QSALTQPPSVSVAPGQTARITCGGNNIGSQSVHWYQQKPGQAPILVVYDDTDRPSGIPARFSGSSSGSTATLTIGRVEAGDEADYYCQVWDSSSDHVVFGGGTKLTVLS ?
0.67 nM
